Values compiled from patent US20210380703A1.

# target_under_test: ACVR2A on primary human myotubes (human, UniProt P27037 20-513)
# Sequence (P27037 20-513): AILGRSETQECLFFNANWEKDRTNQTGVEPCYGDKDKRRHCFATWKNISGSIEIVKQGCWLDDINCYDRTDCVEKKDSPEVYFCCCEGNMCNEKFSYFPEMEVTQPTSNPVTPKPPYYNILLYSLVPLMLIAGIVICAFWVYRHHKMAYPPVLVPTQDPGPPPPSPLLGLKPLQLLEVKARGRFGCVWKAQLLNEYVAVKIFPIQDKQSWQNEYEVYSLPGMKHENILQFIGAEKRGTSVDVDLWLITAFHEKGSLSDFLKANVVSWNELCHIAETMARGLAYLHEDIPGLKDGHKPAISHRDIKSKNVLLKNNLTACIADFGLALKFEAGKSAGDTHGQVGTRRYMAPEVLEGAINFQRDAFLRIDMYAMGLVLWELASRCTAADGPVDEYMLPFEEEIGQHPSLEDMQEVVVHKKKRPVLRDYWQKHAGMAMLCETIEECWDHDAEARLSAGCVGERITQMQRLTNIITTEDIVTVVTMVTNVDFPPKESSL
# procedure_summary: cell-based or functional assay
result_type: Phospho-SMAD3 Human Skeletal Muscle GDF8
Just the number, please, no unit attached.

INSERT INTO results (binder, value_reported) VALUES
  ('373_D04 (antibody, V domains shown) VH: EVQLLESGGGLVQPGGSLRLSCAASGFTFDSYSMNWVRQAPGKGLEWVSGINYNSGYKGYADSVKGRFTISRDNSKNTLYLQMNSLRAEDTAVYYCARSANWHDTALDYWGQGTLVTVSS VL: DIQMTQSPSSLSASVGDRVTITCRASQSILSYLNWYQQKPGKAPKLLIYAATSRHSGVPSRFSGSGSGTDFTLTISSLQPEDFATYYCQQSYDSPLTFGGGTKVEIK', 0.0078),
  ('374_B06 (antibody, V domains shown) VH: EVQLLESGGGLVQPGGSLRLSCAASGFTFDSYSMNWVRQAPGKGLEWVAGINYNSGYKGYADSVKGRFTISRDNSKNTLYLQMNSLRAEDTAVYYCARSANWHDTHLDYWGQGTLVTVSS VL: DIQMTQSPSSLSASVGDRVTITCRASQSILTYVNWYQQKPGKAPKLLIYAATSRASGVPSRFSGSGSGTDFTLTISSLQPEDFATYYCQQSYDTPLTFGGGTKVEIK', 0.0407),
  ('370_E09 (antibody, V domains shown) VH: EVQLLESGGGLVQPGGSLRLSCAASGFTFDDSSMHWVRQAPGKGLEWVSNINYNGGYTGYADSVKGRFTISRDNSKNTLYLQMNSLRAEDTAVYYCAKSANWHDTALDYWGQGTLVTVSS VL: DIQMTQSPSSLSASVGDRVTITCRASQSILSYVNWYQQKPGKAPKLVIYAATSRASGVPSRFSGSGSGTDFTLTISSLQPEDFATYYCQQSYELPLTFGGGTKVEIK', 0.0093),
  ('370_D04 (antibody, V domains shown) VH: EVQLLESGGGLVQPGGSLRLSCAASGFTFDSYSMNWVRQAPGKGLEWVANINYNSGYKGYADSVKGRFTISRDNSKNTLYLQMNSLRAEDTAVYYCARSANWHDTALDYWGQGTLVTVSS VL: DIQMTQSPSSLSASVGDRVTITCRASQSILTYLNWYQQKPGKAPKLVIYAATSRASGVPSRFSGSGSGTDFTLTISSLQPEDFATYYCQQSYDNPLTFGGGTKVEIK', 0.0074);

Record 370_C05 (antibody, V domains shown) VH: EVQLLESGGGLVQPGGSLRLSCAASGFTFSSYSMNWVRQAPGKGLEWVAGINYNSGYTGYADSVKGRFTISRDNSKNTLYLQMNSLRAEDTAVYYCARSANWHDTALDYWGQGTLVTVSS VL: DIQMTQSPSSLSASVGDRVTITCRASQSILSYVNWYQQKPGKAPKLVIYAATSRASGVPSRFSGSGSGTDFTLTISSLQPEDFATYYCQQSYNSPLTFGGGTKVEIK . Reported Phospho-SMAD3 Human Skeletal Muscle GDF8: 0.0082
